Provenance of the data: patent US20080027006A1

// reported [θ]222 observed (degrees·cm^2·dmol^-1) for each item listed
# measurementTarget: HR-C1 (1147-1185) (SARS coronavirus (Urbani strain))
A bare number is all that is needed in reply.

Consider the reported [θ]222 observed (degrees·cm^2·dmol^-1) for these binders:
In [3]: df
Out[3]:
                                     binder  quantitativereadout
0  FNKAISQIQESLTTTSTALGKLQDVVNQNAQALNT (modifications not checked) [HR-N9 (909-943)]               -10800
1  TSTALGKLQDVVNQNAQALNTLVKQLSSNFGAISS (modifications not checked) [HR-N11 (923-957)]                -8000
2  IQESLTTTSTALGKLQDVVNQNAQALNTLVKQLSS (modifications not checked) [HR-N10 (916-950)]               -17700

Dear colleague, I am looking for the recorded [θ]222 observed (degrees·cm^2·dmol^-1) of the following binder: QNVLYENQKQIANQFNKAISQIQESLTTTSTALGK (modifications not checked) [HR-N7 (895-929)]
-7400
